Biological target: cyclophilin B (CypB) (Homo sapiens (Human))
Sequence (P23284 34-216): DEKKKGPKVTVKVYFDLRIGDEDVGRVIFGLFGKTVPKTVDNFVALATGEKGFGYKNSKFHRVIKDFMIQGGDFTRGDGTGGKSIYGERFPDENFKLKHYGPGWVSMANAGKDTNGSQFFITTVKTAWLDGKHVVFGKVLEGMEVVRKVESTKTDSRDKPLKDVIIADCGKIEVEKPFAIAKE
Assay: Inhibitor binding to cyclophilin proteins by SPR, CypB
Design: unit not given here
Conditions: 1:1 binding model
Description: Method 1: Measuring Inhibitor Binding to Cyclophilin Proteins Binding of inhibitors to expressed cyclophilins was determined using surface plasmon resonance (SPR) experiments. Briefly, avi-tagged cyclophilin proteins with mono-biotinylation were immobilized onto a Biotin CAPture chip (GE Healthcare, cat. #28920234). […] Data was analyzed using Biacore T200 Evaluation Software Version 1.0 and a 1:1 binding model was applied to fit the data to obtain kon, koff, and KD.
Starred links: 1 amine or outer side, 2 acyl side, 3 side chain; linkers in the order of their positions; H or OH if unused. Non-standard residues stand in square brackets, D forms with d. Residues, ends and D or L forms follow the SMILES beside them. X39 = C[C@H](CN1CCC(C#N)CC1)[C@@H](C(=O)[*:2])N(C)[*:1]; X11 = CCN1CCN(C[C@H](C)[C@@H](C(=O)[*:2])N(C)[*:1])CC1; MeBmt = C/C=C/C[C@@H](C)[C@@H](O)[C@H](NC)C(=O)O; NMeL = CN[C@@H](CC(C)C)C(=O)O; NMeV = CN[C@H](C(=O)O)C(C)C; dNMeA = CN[C@H](C)C(=O)O; Abu = CC[C@H](N)C(=O)O
METRIC: CypB Kd
No unit in the answer, only the number.

Record C/C=C/C[C@@H](C)[C@@H](O)[C@H]1C(=O)N[C@@H](CC)C(=O)N(C)[C@H](C)C(=O)N(C)[C@@H]([C@H](C)CN2CCC(C#N)CC2)C(=O)N[C@@H](C(C)C)C(=O)N(C)[C@@H](CC(C)C)C(=O)N[C@@H](C)C(=O)N[C@H](C)C(=O)N(C)[C@@H](CC(C)C)C(=O)N(C)[C@@H](CC(C)C)C(=O)N(C)[C@@H](C(C)C)C(=O)N1C [Compound 2.5.26] (cyclo(A[dA][NMeL][NMeL][NMeV][MeBmt][Abu][dNMeA][X39]V[NMeL])) : what is its CypB Kd with cyclophilin B (CypB) (Homo sapiens (Human))? 0.8

Next entry: C/C=C/C[C@@H](C)[C@@H](O)[C@H]1C(=O)N[C@@H](CC)C(=O)N(C)[C@H](C)C(=O)N(C)[C@@H]([C@@H](C)CN2CCN(CC)CC2)C(=O)N[C@@H](C(C)C)C(=O)N(C)[C@@H](CC(C)C)C(=O)N[C@@H](C)C(=O)N[C@H](C)C(=O)N(C)[C@@H](CC(C)C)C(=O)N(C)[C@@H](CC(C)C)C(=O)N(C)[C@@H](C(C)C)C(=O)N1C [Compound 2.17.2] (cyclo(A[dA][NMeL][NMeL][NMeV][MeBmt][Abu][dNMeA][X11]V[NMeL])) 0.5

* * *

// reported CypB Kd per item
target: cyclophilin B (CypB) (Homo sapiens (Human)); test: Inhibitor binding to cyclophilin proteins by SPR, CypB; parameters: unit not given here; details: 1:1 binding model
Starred links: 1 amine or outer side, 2 acyl side, 3 side chain; linkers in the order of their positions; H or OH if unused. Non-standard residues stand in square brackets, D forms with d. Residues, ends and D or L forms follow the SMILES beside them. X10 = C[C@H](CCCOC(=O)NC1CCN(C)CC1)[C@@H](C(=O)[*:2])N(C)[*:1]; X37 = C[C@H](CN1CCC(S(C)(=O)=O)CC1)[C@@H](C(=O)[*:2])N(C)[*:1]; X1 = COC[C@@H]1CN(C[C@H](C)[C@@H](C(=O)[*:2])N(C)[*:1])CCO1; MeBmt = C/C=C/C[C@@H](C)[C@@H](O)[C@H](NC)C(=O)O; NMeL = CN[C@@H](CC(C)C)C(=O)O; NMeV = CN[C@H](C(=O)O)C(C)C; dNMeA = CN[C@H](C)C(=O)O; Abu = CC[C@H](N)C(=O)O
No unit in the answer, only the number.

Below are worked cases with known answers.
COMPOUND	NUMERIC VALUE
C/C=C/C[C@@H](C)[C@@H](O)[C@H]1C(=O)N[C@@H](CC)C(=O)N(C)[C@H](C)C(=O)N(C)[C@@H]([C@H](C)CN2CCC(S(C)(=O)=O)CC2)C(=O)N[C@@H](C(C)C)C(=O)N(C)[C@@H](CC(C)C)C(=O)N[C@@H](C)C(=O)N[C@H](C)C(=O)N(C)[C@@H](CC(C)C)C(=O)N(C)[C@@H](CC(C)C)C(=O)N(C)[C@@H](C(C)C)C(=O)N1C [Compound 2.5.20] (cyclo(A[dA][NMeL][NMeL][NMeV][MeBmt][Abu][dNMeA][X37]V[NMeL]))	1.2
C/C=C/C[C@@H](C)[C@@H](O)[C@H]1C(=O)N[C@@H](CC)C(=O)N(C)[C@H](C)C(=O)N(C)[C@@H]([C@@H](C)CN2CCO[C@H](COC)C2)C(=O)N[C@@H](C(C)C)C(=O)N(C)[C@@H](CC(C)C)C(=O)N[C@@H](C)C(=O)N[C@H](C)C(=O)N(C)[C@@H](CC(C)C)C(=O)N(C)[C@@H](CC(C)C)C(=O)N(C)[C@@H](C(C)C)C(=O)N1C [Compound 2.17.8] (cyclo(A[dA][NMeL][NMeL][NMeV][MeBmt][Abu][dNMeA][X1]V[NMeL]))	0.7

Requested read-out: CypB Kd. Entry: C/C=C/C[C@@H](C)[C@@H](O)[C@H]1C(=O)N[C@@H](CC)C(=O)N(C)[C@H](C)C(=O)N(C)[C@@H]([C@H](C)CCCOC(=O)NC2CCN(C)CC2)C(=O)N[C@@H](C(C)C)C(=O)N(C)[C@@H](CC(C)C)C(=O)N[C@@H](C)C(=O)N[C@H](C)C(=O)N(C)[C@@H](CC(C)C)C(=O)N(C)[C@@H](CC(C)C)C(=O)N(C)[C@@H](C(C)C)C(=O)N1C [Compound 2.19.8] (cyclo(A[dA][NMeL][NMeL][NMeV][MeBmt][Abu][dNMeA][X10]V[NMeL])) 0.4

* * *

System: peripheral blood mononuclear cells (PBMC)
Test: Anti-proliferative or immunosuppressive activity, BrdU incorporation in PHA-stimulated PBMC
Format: cell-based
Settings: PHA 3 μg/ml, 60 hour compound treatment; read-out: EMV PBMC IC50
Experimental: Method 3: Measuring Anti-Proliferative or Immunosuppressive Activity The potential anti-proliferative activity of compounds on T-cells was analyzed based on the amount of bromodesoxy uridine (BrdU) incorporated into DNA of fresh peripheral blood mononuclear cells (PBMC) using the BrdU ELISA kit (Roche). The assay is performed in 96-well plate format with 30,000 PBMCs seeded per well in X-VIVO 15 medium (Lonza). […]
Starred links: 1 amine or outer side, 2 acyl side, 3 side chain; linkers in the order of their positions; H or OH if unused. Non-standard residues stand in square brackets, D forms with d. Residues, ends and D or L forms follow the SMILES beside them. X31 = C[C@H](CN1C[C@H](C)OC[C@@H]1C)[C@@H](C(=O)[*:2])N(C)[*:1]; X20 = C[C@H](CCCN1CCOCC1)[C@@H](C(=O)[*:2])N(C)[*:1]; MeBmt = C/C=C/C[C@@H](C)[C@@H](O)[C@H](NC)C(=O)O; NMeL = CN[C@@H](CC(C)C)C(=O)O; NMeV = CN[C@H](C(=O)O)C(C)C; dNMeA = CN[C@H](C)C(=O)O; Abu = CC[C@H](N)C(=O)O
METRIC: IC50

COMPOUND	RESULT
C/C=C/C[C@@H](C)[C@@H](O)[C@H]1C(=O)N[C@@H](CC)C(=O)N(C)[C@H](C)C(=O)N(C)[C@@H]([C@H](C)CN2C[C@H](C)OC[C@@H]2C)C(=O)N[C@@H](C(C)C)C(=O)N(C)[C@@H](CC(C)C)C(=O)N[C@@H](C)C(=O)N[C@H](C)C(=O)N(C)[C@@H](CC(C)C)C(=O)N(C)[C@@H](CC(C)C)C(=O)N(C)[C@@H](C(C)C)C(=O)N1C [Compound 2.5.6] (cyclo(A[dA][NMeL][NMeL][NMeV][MeBmt][Abu][dNMeA][X31]V[NMeL]))	3.4 µM

Record C/C=C/C[C@@H](C)[C@@H](O)[C@H]1C(=O)N[C@@H](CC)C(=O)N(C)[C@H](C)C(=O)N(C)[C@@H]([C@H](C)CCCN2CCOCC2)C(=O)N[C@@H](C(C)C)C(=O)N(C)[C@@H](CC(C)C)C(=O)N[C@@H](C)C(=O)N[C@H](C)C(=O)N(C)[C@@H](CC(C)C)C(=O)N(C)[C@@H](CC(C)C)C(=O)N(C)[C@@H](C(C)C)C(=O)N1C [Compound 2.19.1] (cyclo([MeBmt][Abu][dNMeA][X20]V[NMeL]A[dA][NMeL][NMeL][NMeV])) : what is its IC50 with peripheral blood mononuclear cells (PBMC)? 16.6 µM

Next entry: `CCCC[C@@H](C)[C@@H](O)[C@H]1C(=O)N[C@@H](CC)C(=O)N(C)[C@H](C)C(=O)N(C)[C@@H]([C@H](C)COCCN2CCOCC2)C(=O)N[C@@H](C(C)C)C(=O)N(C)[C@@H](CC(C)C)C(=O)N[C@@H](C)C(=O)N[C@H](C)C(=O)N(C)[C@@H](CC(C)C)C(=O)N(C)[C@@H](CC(C)C)C(=O)N(C)[C@@H](C(C)C)C(=O)N1C` 14.5 µM
